Taken from patent US9822118B2.

System name: recombinant human TrkA (Homo sapiens, UniProt P04629)
Construct: 6HIS tagged cytoplasmic domain from Invitrogen, Catalog No. PV3144
Sequence (P04629 440-796 limits assumed): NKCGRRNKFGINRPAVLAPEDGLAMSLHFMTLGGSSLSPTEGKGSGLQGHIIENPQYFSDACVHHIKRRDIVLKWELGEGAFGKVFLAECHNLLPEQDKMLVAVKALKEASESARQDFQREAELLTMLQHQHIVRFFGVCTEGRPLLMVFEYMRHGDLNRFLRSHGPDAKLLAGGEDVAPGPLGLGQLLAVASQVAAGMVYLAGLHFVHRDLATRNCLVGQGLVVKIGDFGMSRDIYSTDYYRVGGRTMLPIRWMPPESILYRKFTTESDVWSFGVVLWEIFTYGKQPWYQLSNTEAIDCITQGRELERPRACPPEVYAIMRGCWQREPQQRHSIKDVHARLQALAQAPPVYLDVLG
Method notes: TrkA LanthaScreen Eu Kinase Binding Assay
Measurement conditions: averaged IC50; TR-FRET binding assay, 60 min at 22° C.; read-out: TrkA Enzyme IC50
pIC50: −log10 of the molar value.
Reported property: pIC50

1) O=C(Nc1c2c(nn1-c1ccccc1)CCC2)Nc1c2ccccc2nn1-c1ccccc1 [Example 37]    6.00 to 7.00
2) CCOc1nn(-c2ccccc2)c(NC(=O)Nc2c(-c3ccccc3)nc3ccccn23)c1C [Example 5]    6.00 to 7.00
3) CCOc1nn(-c2ccccc2)c(NC(=O)Nc2c(-c3ccccc3)nc3c(Br)cccn23)c1C [Example 15]    > 7.00
4) Cc1c(OCC(CO)CO)nn(-c2ccccc2)c1NC(=O)Nc1c(-c2ccccc2)nc2c(C(F)(F)F)cccn12 [Example 25]    > 7.00
5) Cc1c(OC[C@H](O)CO)nn(-c2ccccc2)c1NC(=O)Nc1c(-c2ccccc2)nc2c(C(F)(F)F)cccn12 [Example 28]    > 7.00
6) Cc1ccc(NC(=O)Nc2c(-c3ccccc3)nc3c(C)nccn23)c(-c2ccccc2)n1 [Example 9]    6.00 to 7.00
7) Cc1c(OC[C@@H](O)CO)nn(-c2ccccc2)c1NC(=O)Nc1c(-c2ccccc2)nc2c(C(F)(F)F)cccn12 [Example 29]    > 7.00
8) CCOc1nn(-c2ccccc2)c(NC(=O)Nc2c(-c3ccccc3)nc3c(Cl)cccn23)c1C [Example 4]    > 7.00
9) COC[C@@H](O)COc1nn(-c2ccccc2)c(NC(=O)Nc2c(-c3ccccc3)nc3c(C(F)(F)F)cccn23)c1C [Example 35]    6.00 to 7.00
10) Cn1cc(-c2nn(-c3ccccc3)c(NC(=O)Nc3c(-c4ccccc4)nc4c(C(F)(F)F)cccn34)c2Cl)cn1 [Example 34]    > 7.00
11) Cc1cccn2c(NC(=O)Nc3c4c(nn3-c3ccccc3)CCCC4)c(-c3ccccc3)nc12 [Example 19]    > 7.00
12) Cc1c(OC[C@@H](C)O)nn(-c2ccccc2)c1NC(=O)Nc1c(-c2ccccc2)nc2c(C(F)(F)F)cccn12 [Example 27]    > 7.00
13) Cc1nn(-c2ccccc2)c(NC(=O)Nc2c(-c3ccccc3)nc3c(C)nccn23)c1C [Example 8]    > 7.00
14) CCOc1nn(-c2ccccc2)c(NC(=O)Nc2c(-c3cccc(F)c3)nc3c(C(F)(F)F)cccn23)c1C [Example 32]    6.00 to 7.00
15) Cc1cccn2c(NC(=O)Nc3c4c(nn3-c3ccccc3)CS(=O)(=O)C4)c(-c3ccccc3)nc12 [Example 17]    > 7.00
16) COc1ccc(-c2nc3c(C)cccn3c2NC(=O)Nc2c3c(nn2-c2ccccc2)CS(=O)(=O)C3)cc1 [Example 24]    6.00 to 7.00
